All values here come from ChEMBL document CHEMBL1127321.

# assay_protocol: Tested for extracellular drug concentration required to kill 50 percent of V-79 cells after one hour incubation period
# experimental_context: Chinese hamster, V79 cells; read-out: LD50
measure: CC50 at 1 h

Solved entries (count: 3):
| mol_smiles | CC50 at 1 h |
| --- | --- |
| CCCCCCCCCCCCCCCCCC[Si](C)(C)O[Si]1(O[Si](C)(C)CCCCCCCCCCCCCCCCCC)n2c3c4cc5ccccc5cc4c2/N=C2N=C(/N=c4/c5cc6ccccc6cc5/c(n41)=N/C1=NC(=N\3)/c3cc4ccccc4cc31)c1cc3ccccc3cc1\2 | 4.2 µM |
| CC(C)(C)[Si](C)(C)O[Si]1(O[Si](C)(C)C(C)(C)C)n2c3c4cc5ccccc5cc4c2/N=C2N=C(/N=c4/c5cc6ccccc6cc5/c(n41)=N/C1=NC(=N\3)/c3cc4ccccc4cc31)c1cc3ccccc3cc1\2 | 36 µM |
| CCCCCC[Si](CCCCCC)(CCCCCC)O[Si]1(O[Si](CCCCCC)(CCCCCC)CCCCCC)n2c3c4cc5ccccc5cc4c2/N=C2N=C(/N=c4/c5cc6ccccc6cc5/c(n41)=N/C1=NC(=N\3)/c3cc4ccccc4cc31)c1cc3ccccc3cc1\2 | 46 µM |

Shifting focus to the molecule that follows.
-- ask Item CC(C)C(C)(C)[Si](C)(C)O[Si]1(O[Si](C)(C)C(C)(C)C(C)C)n2c3c4cc5ccccc5cc4c2/N=C2N=C(/N=c4/c5cc6ccccc6cc5/c(n41)=N/C1=NC(=N\3)/c3cc4ccccc4cc31)c1cc3ccccc3cc1\2 has what recorded CC50 at 1 h?
-- reply 6.5 µM

* * *

# assay_protocol: Tested for extracellular drug concentration required to kill 50 percent of V-79 cells after one hour incubation period and subsequent exposure red light
# experimental_context: Chinese hamster, V79 cells; read-out: LD50
measure: CC50 at 1 h
Enter the number, and then the unit.

Solved entries (count: 3):
| mol_smiles | reported_result |
| --- | --- |
| CC(C)(C)[Si](C)(C)O[Si]1(O[Si](C)(C)C(C)(C)C)n2c3c4cc5ccccc5cc4c2/N=C2N=C(/N=c4/c5cc6ccccc6cc5/c(n41)=N/C1=NC(=N\3)/c3cc4ccccc4cc31)c1cc3ccccc3cc1\2 | 12 µM |
| CCCCCC[Si](CCCCCC)(CCCCCC)O[Si]1(O[Si](CCCCCC)(CCCCCC)CCCCCC)n2c3c4cc5ccccc5cc4c2/N=C2N=C(/N=c4/c5cc6ccccc6cc5/c(n41)=N/C1=NC(=N\3)/c3cc4ccccc4cc31)c1cc3ccccc3cc1\2 | 29 µM |
| CC(C)C(C)(C)[Si](C)(C)O[Si]1(O[Si](C)(C)C(C)(C)C(C)C)n2c3c4cc5ccccc5cc4c2/N=C2N=C(/N=c4/c5cc6ccccc6cc5/c(n41)=N/C1=NC(=N\3)/c3cc4ccccc4cc31)c1cc3ccccc3cc1\2 | 5.5 µM |

-- ask Item CCCCCCCCCCCCCCCCCC[Si](C)(C)O[Si]1(O[Si](C)(C)CCCCCCCCCCCCCCCCCC)n2c3c4cc5ccccc5cc4c2/N=C2N=C(/N=c4/c5cc6ccccc6cc5/c(n41)=N/C1=NC(=N\3)/c3cc4ccccc4cc31)c1cc3ccccc3cc1\2 has what recorded CC50 at 1 h?
-- reply 1.8 µM
